Tested on: E.faecalis ATCC 29212
Parameter: MIC (µg/mL)
One number for each entry, in µg/mL.

| Compound | Tested Target | Parameter | Observed Value |
| --- | --- | --- | --- |
| C[Si]1(c2ccccc2)CCN(c2c(F)cc(N3C[C@H](CO)OC3=O)cc2F)CC1 [NDS-10071] | E.faecalis ATCC 29212 | MIC | 8 |
| COC(=O)NC[C@H]1CN(c2ccc(N3CC[Si](C)(C)CC3)c(F)c2)C(=O)O1 [NDS-10061] | E.faecalis ATCC 29212 | MIC | 8 |
| CC(=O)NC[C@H]1CN(c2ccc(N3CC[Si](C)(C)CC3)c(F)c2)C(=O)O1 [NDS-10024] | E.faecalis ATCC 29212 | MIC | 16 |
| C[Si]1(C)CCN(c2c(F)cc(N3C[C@H](CN)OC3=O)cc2F)CC1 [NDS-10054] | E.faecalis ATCC 29212 | MIC | 16 |
| COC(=O)NC[C@H]1CN(c2cc(F)c(N3CC[Si](C)(C)CC3)c(F)c2)C(=O)O1 [NDS-10053] | E.faecalis ATCC 29212 | MIC | 32 |

Now consider a different compound.
-- ask In one line, give reported MIC of the entry CC(=O)NC[C@H]1CN(c2ccc(N3CCOCC3)c(F)c2)C(=O)O1 [Linezolid, reference compound] .
-- reply 0.5
